Cited source for all entries: paper PMC9133036

- experimentalTarget: OX2R T111A (Homo sapiens, UniProt O43614, T111A)
- Construct: FLAG
- Sequence (O43614 1-444 T111A): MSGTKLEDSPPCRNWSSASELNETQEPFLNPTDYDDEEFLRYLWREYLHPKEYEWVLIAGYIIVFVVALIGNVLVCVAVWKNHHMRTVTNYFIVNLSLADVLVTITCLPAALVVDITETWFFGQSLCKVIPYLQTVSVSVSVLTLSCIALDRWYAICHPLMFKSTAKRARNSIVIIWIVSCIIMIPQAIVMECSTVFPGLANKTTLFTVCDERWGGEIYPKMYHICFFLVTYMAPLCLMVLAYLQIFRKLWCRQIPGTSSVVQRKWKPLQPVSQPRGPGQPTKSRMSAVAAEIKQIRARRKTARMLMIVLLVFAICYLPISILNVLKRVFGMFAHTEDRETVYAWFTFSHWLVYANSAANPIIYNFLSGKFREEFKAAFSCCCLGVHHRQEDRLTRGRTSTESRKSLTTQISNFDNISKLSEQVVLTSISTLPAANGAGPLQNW
- assayExplanation: IP accumulation assay, OX2R T111A
- conditionNotes: IP accumulation
- From the text: The IP assay was adapted from a prior precedent. HEK293 cells were maintained in DMEM-high glucose (Millipore Sigma) supplemented with 5% fetal bovine serum (Corning) and penicillin-streptomycin (Millipore Sigma). Receptor constructs used were the full-length wild-type (or mutant) human OX1R and OX2R sequences cloned into pCDNA3. […] The plates were read on a MicroBeta scintillation counter (Perkin Elmer) the following day. […]
propertyName: EC50 (nM)
Report only the number, with the unit nM understood.

System OX2R T111A (Homo sapiens, UniProt O43614, T111A). Read-out EC50. Item COC(=O)N1CCC[C@H](NS(C)(=O)=O)[C@@H]1CO[C@H]1CC[C@@H](c2ccccc2)CC1 [TAK-925] . Report value.
2100

====

- experimentalTarget: OX2R T111S/T135A (Homo sapiens, UniProt O43614, T111S/T135A)
- Construct: FLAG; expressed in transfected cells; host or cells: HEK293
- assayExplanation: IP accumulation assay, OX2R T111S/T135A
- Type: cell-based
- conditionNotes: IP accumulation; read-out: EC50
propertyName: EC50 (µM)
Report only the number, with the unit µM understood.

System OX2R T111S/T135A (Homo sapiens, UniProt O43614, T111S/T135A). Read-out EC50. Item COC(=O)N1CCC[C@H](NS(C)(=O)=O)[C@@H]1CO[C@H]1CC[C@@H](c2ccccc2)CC1 . Report value.
3.6

====

- experimentalTarget: human OX1R wild-type (Homo sapiens, UniProt O43613)
- Construct: FLAG
- Sequence (O43613 whole entry): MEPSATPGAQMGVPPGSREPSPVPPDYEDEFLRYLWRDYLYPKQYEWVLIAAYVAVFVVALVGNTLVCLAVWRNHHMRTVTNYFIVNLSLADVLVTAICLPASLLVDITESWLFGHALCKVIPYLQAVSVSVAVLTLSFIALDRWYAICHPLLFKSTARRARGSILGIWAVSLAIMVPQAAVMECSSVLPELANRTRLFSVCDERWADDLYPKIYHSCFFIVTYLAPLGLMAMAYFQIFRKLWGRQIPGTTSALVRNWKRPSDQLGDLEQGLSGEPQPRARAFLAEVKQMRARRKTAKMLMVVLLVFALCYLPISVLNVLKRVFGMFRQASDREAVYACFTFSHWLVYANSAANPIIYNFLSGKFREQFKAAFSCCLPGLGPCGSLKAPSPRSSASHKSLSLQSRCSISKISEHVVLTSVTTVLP
- assayExplanation: IP accumulation assay, OX1R WT
- conditionNotes: IP accumulation; non-saturating
propertyName: EC50

Respond only with EC50 recorded for COC(=O)N1CCC[C@H](NS(C)(=O)=O)[C@@H]1CO[C@H]1CC[C@@H](c2ccccc2)CC1 [TAK-925]
> 100 µM

====

- experimentalTarget: OX2R Q187A (Homo sapiens, UniProt O43614, Q187A)
- Sequence (O43614 1-444 Q187A): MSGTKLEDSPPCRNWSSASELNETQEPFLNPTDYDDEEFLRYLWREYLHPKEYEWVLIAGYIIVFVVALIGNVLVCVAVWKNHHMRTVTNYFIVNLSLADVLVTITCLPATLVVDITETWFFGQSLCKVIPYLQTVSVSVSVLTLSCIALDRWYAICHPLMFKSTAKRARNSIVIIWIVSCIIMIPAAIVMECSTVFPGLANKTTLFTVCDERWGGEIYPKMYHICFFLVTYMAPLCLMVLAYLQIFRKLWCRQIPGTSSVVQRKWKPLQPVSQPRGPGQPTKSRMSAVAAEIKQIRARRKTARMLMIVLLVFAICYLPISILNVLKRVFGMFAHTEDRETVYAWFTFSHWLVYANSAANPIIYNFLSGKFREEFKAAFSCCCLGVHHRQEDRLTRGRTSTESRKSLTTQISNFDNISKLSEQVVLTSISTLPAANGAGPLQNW
- assayExplanation: β-arrestin PathHunter assay, OX2R Q187A
- conditionNotes: β-arrestin recruitment
propertyName: pEC50
Schema: pEC50 number; meaning minus log10 of the concentration expressed in molar units.

Respond only with pEC50 recorded for COC(=O)N1CCC[C@H](NS(C)(=O)=O)[C@@H]1CO[C@H]1CC[C@@H](c2ccccc2)CC1
5.49
